These measurements were taken from patent US8895549B2.

test system: PI3Kβ (complex of human p110β and human p85α) (Homo sapiens (Human), UniProt P42338)
Sequence (P42338 whole entry, the tested form may be a part): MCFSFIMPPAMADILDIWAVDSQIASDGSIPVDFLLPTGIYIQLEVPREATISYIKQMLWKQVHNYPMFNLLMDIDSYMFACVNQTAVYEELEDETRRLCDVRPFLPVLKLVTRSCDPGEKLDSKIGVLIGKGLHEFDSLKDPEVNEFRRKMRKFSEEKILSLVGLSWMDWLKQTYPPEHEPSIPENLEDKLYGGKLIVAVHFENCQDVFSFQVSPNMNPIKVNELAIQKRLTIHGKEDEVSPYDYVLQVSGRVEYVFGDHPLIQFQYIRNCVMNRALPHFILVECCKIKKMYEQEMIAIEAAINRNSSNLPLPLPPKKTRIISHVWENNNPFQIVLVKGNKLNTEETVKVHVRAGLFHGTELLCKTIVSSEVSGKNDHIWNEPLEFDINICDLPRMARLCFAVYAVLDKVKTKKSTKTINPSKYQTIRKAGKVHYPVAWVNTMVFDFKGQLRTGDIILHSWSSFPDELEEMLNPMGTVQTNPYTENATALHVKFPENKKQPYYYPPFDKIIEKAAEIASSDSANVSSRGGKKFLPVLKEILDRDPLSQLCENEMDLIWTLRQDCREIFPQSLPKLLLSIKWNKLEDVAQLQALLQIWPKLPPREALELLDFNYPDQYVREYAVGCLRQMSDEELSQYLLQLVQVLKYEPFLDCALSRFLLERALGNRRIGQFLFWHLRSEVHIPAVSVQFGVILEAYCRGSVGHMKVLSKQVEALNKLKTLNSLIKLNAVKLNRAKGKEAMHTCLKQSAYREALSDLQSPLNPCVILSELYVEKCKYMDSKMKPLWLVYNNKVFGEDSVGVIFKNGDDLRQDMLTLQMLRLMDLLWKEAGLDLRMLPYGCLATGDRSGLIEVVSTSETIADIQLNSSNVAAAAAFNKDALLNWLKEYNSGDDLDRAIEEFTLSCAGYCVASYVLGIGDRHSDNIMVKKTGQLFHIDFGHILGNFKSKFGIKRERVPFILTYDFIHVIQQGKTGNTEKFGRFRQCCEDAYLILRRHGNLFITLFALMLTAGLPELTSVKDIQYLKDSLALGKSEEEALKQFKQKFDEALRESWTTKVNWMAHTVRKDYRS
Sequence (P27986 whole entry partner, the tested form may be a part): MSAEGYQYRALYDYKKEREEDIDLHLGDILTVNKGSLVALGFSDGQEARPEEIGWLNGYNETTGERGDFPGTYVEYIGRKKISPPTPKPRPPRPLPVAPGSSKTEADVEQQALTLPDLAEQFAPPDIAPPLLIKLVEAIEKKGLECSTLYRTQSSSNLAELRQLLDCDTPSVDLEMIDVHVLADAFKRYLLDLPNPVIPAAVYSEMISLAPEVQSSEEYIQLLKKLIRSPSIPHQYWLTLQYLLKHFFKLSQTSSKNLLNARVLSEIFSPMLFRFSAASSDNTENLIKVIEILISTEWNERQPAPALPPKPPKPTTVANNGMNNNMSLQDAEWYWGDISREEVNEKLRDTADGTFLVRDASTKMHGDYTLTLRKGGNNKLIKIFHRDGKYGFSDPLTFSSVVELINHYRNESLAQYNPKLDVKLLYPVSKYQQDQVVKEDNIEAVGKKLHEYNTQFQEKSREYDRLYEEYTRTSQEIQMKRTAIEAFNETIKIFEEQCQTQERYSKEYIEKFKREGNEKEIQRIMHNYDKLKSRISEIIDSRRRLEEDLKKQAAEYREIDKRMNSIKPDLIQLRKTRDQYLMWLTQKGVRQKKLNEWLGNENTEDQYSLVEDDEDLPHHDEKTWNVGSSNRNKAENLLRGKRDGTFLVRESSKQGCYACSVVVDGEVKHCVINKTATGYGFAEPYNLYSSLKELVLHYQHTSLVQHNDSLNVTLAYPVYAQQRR
assay overview: PI3Kβ kinase assay (HTRF-based PI3K inhibition assay);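 further: Kinase-made PIP3 detected by HTRF, displacing biotinylated PIP3 tracer from a complex of Europium anti-GST antibody, GST-fused PH domain and Streptavidin-APC, read as Europium-to-APC energy transfer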
Assay type: biochemical
test settings: 0.93 μM compound; read-out: PI3K beta average % Inhibition at 0.93 μM
I'd appreciate it if you could supply inhibition at 0.93 µM values for the items below.
# value in %; strip the unit string

Give inhibition at 0.93 µM (PI3Kβ (complex of human p110β and human p85α) (Homo sapiens (Human), UniProt P42338)) of the following compound: COc1c(OCC(O)CN(C)C)ccc2c1N=C(NC(=O)c1cccnc1)N1CCN=C21 (stereo not shown)
98.1

Give inhibition at 0.93 µM (PI3Kβ (complex of human p110β and human p85α) (Homo sapiens (Human), UniProt P42338)) of the following compound: COc1c(OC[C@H](O)CN2CCOCC2)ccc2c1N=C(NC(=O)c1cccnc1C)N1CCN=C21
102

Give inhibition at 0.93 µM (PI3Kβ (complex of human p110β and human p85α) (Homo sapiens (Human), UniProt P42338)) of the following compound: COc1c(OC[C@H](O)CN2CCCC2)ccc2c1N=C(NC(=O)c1cccnc1C)N1CCN=C21
103

Give inhibition at 0.93 µM (PI3Kβ (complex of human p110β and human p85α) (Homo sapiens (Human), UniProt P42338)) of the following compound: COc1c(OC[C@@H](O)CN2CCOCC2)ccc2c1N=C(NC(=O)c1cccnc1)N1CCN=C21
92.9

---

test system: PI3Kα (complex of human p110α and human p85α) (Homo sapiens (Human), UniProt P42336)
Sequence (P42336 whole entry, the tested form may be a part): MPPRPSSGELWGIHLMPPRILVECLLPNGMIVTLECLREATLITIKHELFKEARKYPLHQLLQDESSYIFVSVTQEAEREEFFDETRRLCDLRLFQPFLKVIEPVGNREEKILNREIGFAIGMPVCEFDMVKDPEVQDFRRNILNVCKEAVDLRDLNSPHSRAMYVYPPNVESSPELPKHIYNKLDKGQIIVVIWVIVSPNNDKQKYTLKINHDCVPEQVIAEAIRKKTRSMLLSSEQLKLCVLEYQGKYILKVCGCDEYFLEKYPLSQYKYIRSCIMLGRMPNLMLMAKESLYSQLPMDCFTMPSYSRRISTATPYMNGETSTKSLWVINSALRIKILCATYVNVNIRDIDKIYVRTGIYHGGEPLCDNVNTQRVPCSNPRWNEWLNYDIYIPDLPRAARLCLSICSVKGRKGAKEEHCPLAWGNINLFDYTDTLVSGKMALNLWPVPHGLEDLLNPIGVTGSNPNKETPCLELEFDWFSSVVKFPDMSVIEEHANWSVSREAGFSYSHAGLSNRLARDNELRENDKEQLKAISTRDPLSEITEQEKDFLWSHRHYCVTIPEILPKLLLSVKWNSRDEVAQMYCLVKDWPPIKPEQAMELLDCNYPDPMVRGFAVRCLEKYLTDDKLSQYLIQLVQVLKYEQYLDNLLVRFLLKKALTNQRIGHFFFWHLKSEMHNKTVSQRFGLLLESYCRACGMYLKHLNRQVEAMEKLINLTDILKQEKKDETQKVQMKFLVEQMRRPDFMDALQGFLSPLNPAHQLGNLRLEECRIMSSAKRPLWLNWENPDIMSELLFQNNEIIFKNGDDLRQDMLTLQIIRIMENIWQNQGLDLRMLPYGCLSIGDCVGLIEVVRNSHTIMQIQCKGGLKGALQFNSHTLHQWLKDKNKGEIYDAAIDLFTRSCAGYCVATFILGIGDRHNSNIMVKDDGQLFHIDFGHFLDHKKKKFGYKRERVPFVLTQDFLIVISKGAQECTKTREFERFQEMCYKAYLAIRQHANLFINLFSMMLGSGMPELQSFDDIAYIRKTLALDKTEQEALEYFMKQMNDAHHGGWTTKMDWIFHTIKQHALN
Sequence (P27986 whole entry partner, the tested form may be a part): as the sequence (P27986 whole entry partner, the tested form may be a part) above
assay overview: PI3Kα kinase assay (HTRF-based PI3K inhibition assay);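 further: PIP3 product detected by HTRF, reading resonance energy transfer from Europium-labeled anti-GST antibody to Streptavidin-APC, as displacement of biotinylated PIP3 tracer from the GST-PH domain complex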
Format: biochemical
test settings: 0.93 μM compound; read-out: PI3K alpha average % Inhibition at 0.93 μM
Counter-ions that a name gives are not always drawn.
I'd appreciate it if you could supply inhibition at 0.93 µM values for the items below.
# value in %; strip the unit string

inhibition at 0.93 µM lookup needed for COc1c(OC[C@H](O)CN2CC3CCC(C2)O3)ccc2c1N=C(NC(=O)c1cnc(N)nc1)N1CCN=C21 [Example 28, dihydrochloride] , thanks.
102

inhibition at 0.93 µM lookup needed for COc1c(OC[C@H](O)CN2CCOCC2)ccc2c1N=C(NC(=O)c1cnc3[nH]cnc3c1)N1CCN=C21 , thanks.
110

inhibition at 0.93 µM lookup needed for COc1c(OCC(O)CN2CCOCC2)ccc2c1N=C(NC(=O)c1cccnc1)N1CCN=C21 (stereo not drawn) [Comparative Example 1, reference compound] , thanks.
97.4

---

test system: PI3Kα (complex of human p110α and human p85α) (Homo sapiens (Human))
assay overview: PI3Kα kinase assay (HTRF-based PI3K inhibition assay)
Format: biochemical
test settings: 0.93 μM compound; read-out: PI3K alpha average % Inhibition at 0.93 μM
I'd appreciate it if you could supply inhibition at 0.93 µM values for the items below.
# value in %; strip the unit string

Give inhibition at 0.93 µM (PI3Kα (complex of human p110α and human p85α) (Homo sapiens (Human))) of the following compound: COc1c(OC[C@H](O)CN2CCCC2)ccc2c1N=C(NC(=O)c1cncnc1)N1CCN=C21
85.1

Give inhibition at 0.93 µM (PI3Kα (complex of human p110α and human p85α) (Homo sapiens (Human))) of the following compound: COc1c(OC[C@H](O)CN2CCCCC2)ccc2c1N=C(NC(=O)c1cncs1)N1CCN=C21
103

Give inhibition at 0.93 µM (PI3Kα (complex of human p110α and human p85α) (Homo sapiens (Human))) of the following compound: COc1c(OC[C@H](O)CN2CCCC2)ccc2c1N=C(NC(=O)c1cccnc1)N1CCN=C21
102

Give inhibition at 0.93 µM (PI3Kα (complex of human p110α and human p85α) (Homo sapiens (Human))) of the following compound: COc1c(OC[C@H](O)CN(C(C)C)C(C)C)ccc2c1N=C(NC(=O)c1cncs1)N1CCN=C21
95.7

Give inhibition at 0.93 µM (PI3Kα (complex of human p110α and human p85α) (Homo sapiens (Human))) of the following compound: COc1c(OC[C@H](O)CN2CCC2)ccc2c1N=C(NC(=O)c1cccnc1C)N1CCN=C21
109

Give inhibition at 0.93 µM (PI3Kα (complex of human p110α and human p85α) (Homo sapiens (Human))) of the following compound: COc1c(OC[C@H](O)CN2C[C@@H](C)O[C@@H](C)C2)ccc2c1N=C(NC(=O)c1cncs1)N1CCN=C21
94.2

Give inhibition at 0.93 µM (PI3Kα (complex of human p110α and human p85α) (Homo sapiens (Human))) of the following compound: COc1c(OC[C@H](O)CN2C[C@@H](C)O[C@@H](C)C2)ccc2c1N=C(NC(=O)c1cccnc1C)N1CCN=C21
109

Give inhibition at 0.93 µM (PI3Kα (complex of human p110α and human p85α) (Homo sapiens (Human))) of the following compound: COc1c(OC[C@H](O)CN2CCCC2)ccc2c1N=C(NC(=O)c1scnc1C)N1CCN=C21
92.8

Give inhibition at 0.93 µM (PI3Kα (complex of human p110α and human p85α) (Homo sapiens (Human))) of the following compound: COc1c(OC[C@H](O)CN2CCCCC2)ccc2c1N=C(NC(=O)c1cccnc1C)N1CCN=C21
103

Give inhibition at 0.93 µM (PI3Kα (complex of human p110α and human p85α) (Homo sapiens (Human))) of the following compound: COc1c(OC[C@H](O)CN2C[C@@H](C)O[C@@H](C)C2)ccc2c1N=C(NC(=O)c1cnc(N)nc1)N1CCN=C21
97.9

Give inhibition at 0.93 µM (PI3Kα (complex of human p110α and human p85α) (Homo sapiens (Human))) of the following compound: COc1c(OC[C@H](O)CN(C(C)C)C(C)C)ccc2c1N=C(NC(=O)c1cccnc1C)N1CCN=C21
102

Give inhibition at 0.93 µM (PI3Kα (complex of human p110α and human p85α) (Homo sapiens (Human))) of the following compound: COc1c(OCC(O)CN(C)C)ccc2c1N=C(NC(=O)c1cccnc1)N1CCN=C21 (stereo not drawn)
96.3

Give inhibition at 0.93 µM (PI3Kα (complex of human p110α and human p85α) (Homo sapiens (Human))) of the following compound: COc1c(OC[C@H](O)CN2CCOCC2)ccc2c1N=C(NC(=O)c1cccnc1C)N1CCN=C21
104

Give inhibition at 0.93 µM (PI3Kα (complex of human p110α and human p85α) (Homo sapiens (Human))) of the following compound: COc1c(OC[C@H](O)CN2CCC2)ccc2c1N=C(NC(=O)c1cncs1)N1CCN=C21
109

Give inhibition at 0.93 µM (PI3Kα (complex of human p110α and human p85α) (Homo sapiens (Human))) of the following compound: COc1c(OC[C@H](O)CN2CC3CCC(C2)O3)ccc2c1N=C(NC(=O)c1cccnc1)N1CCN=C21
101
